ASSAYED TARGET: KRAS G12V (Homo sapiens, UniProt P01116, G12V)
Sequence (P01116 1-188 isoform P01116-2 G12V): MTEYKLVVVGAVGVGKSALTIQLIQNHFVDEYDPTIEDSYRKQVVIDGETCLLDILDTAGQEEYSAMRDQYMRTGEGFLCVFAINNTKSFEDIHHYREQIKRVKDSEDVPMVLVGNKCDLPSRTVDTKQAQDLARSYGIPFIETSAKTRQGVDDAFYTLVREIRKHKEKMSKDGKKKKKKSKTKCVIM
EXPERIMENT NOTES: HTRF KRAS-SOS1 interaction assay, KRAS G12V
STUDY CONDITIONS: binned ≤2 μM / >2 μM, read-out: Inhibition of KRAS G12V (IC50)
Would you kindly list IC50 for each of these molecules?

Briefly, IC50 measured for COCC[C@H](c1cccnc1N)N1CCOc2c(C(F)(F)F)c(-c3ccc(F)c4sc(N)c(C#N)c34)c(F)c3nc(OC[C@@]45CCCN4C[C@H](F)C5)nc1c23 : ≤ 2000 nM

Briefly, IC50 measured for C[C@H](c1cccnc1N)N1CCOc2c(C(F)(F)F)c(-c3ccc(F)c4sc(N)c(C#N)c34)c(F)c3nc(OC[C@@]45CCCN4C[C@@]4(CC4(F)F)C5)nc1c23 (single isomer, unassigned) : ≤ 2000 nM

Briefly, IC50 measured for C[C@H](c1cccnc1N)N1CCOc2c(Cl)c(-c3ccc(F)c4sc(N)c(C#N)c34)c(F)c3nc(OCC45CCCN4C[C@H](OCCCP(C)(C)=O)C5)nc1c23 (single isomer, unassigned) : ≤ 2000 nM

Briefly, IC50 measured for CC(c1cncnc1N)N1CCOc2c(Cl)c(-c3ccc(F)c4sc(N)c(C#N)c34)c(F)c3nc(OC[C@@]45CCCN4C[C@H](F)C5)nc1c23 (single isomer, unassigned) : ≤ 2000 nM

Briefly, IC50 measured for CC(=O)N1CCC(C[C@H](c2cccnc2N)N2CCOc3c(C(F)(F)F)c(-c4ccc(F)c5sc(N)c(C#N)c45)c(F)c4nc(OC[C@@]56CCCN5C[C@H](F)C6)nc2c34)CC1 : ≤ 2000 nM

Briefly, IC50 measured for C[C@H](c1cccnc1N)N1CCOc2c(Cl)c(-c3ccc(F)c4sc(N)c(C#N)c34)c(F)c3nc(OC[C@@]45CCCN4CC(CP(C)(C)=O)C5)nc1c23 (mixture of isomers) : ≤ 2000 nM

Briefly, IC50 measured for CN(C)CCC[C@H](c1cccnc1N)N1CCOc2c(C(F)(F)F)c(-c3ccc(F)c4sc(N)c(C#N)c34)c(F)c3nc(OC[C@@]45CCCN4C[C@H](F)C5)nc1c23 (single isomer, unassigned) : ≤ 2000 nM

Briefly, IC50 measured for C[C@H](c1cc(F)cnc1N)N1CCOc2c(C(F)(F)F)c(-c3ccc(F)c4sc(N)c(C#N)c34)c(F)c3nc(OCC4(CN5CC[C@@H](F)C5)CC4)nc1c23 : ≤ 2000 nM

Briefly, IC50 measured for C[C@H](c1cccnc1N)N1CCOc2c(C(F)(F)F)c(-c3cc(F)c(F)c4sc(N)c(C#N)c34)c(F)c3nc(OC[C@@]45CCCN4C[C@H](F)C5)nc1c23 (single isomer, unassigned) : ≤ 2000 nM

Briefly, IC50 measured for N#Cc1c(N)sc2c(F)ccc(-c3c(C(F)(F)F)c4c5c(nc(OC[C@@]67CCCN6CC(=C(F)F)C7)nc5c3F)N([C@H](CCC(F)(F)F)c3cc(F)cnc3N)CCO4)c12 : ≤ 2000 nM

Briefly, IC50 measured for C[C@H](c1cccnc1N)N1CCOc2c(Cl)c(-c3ccc(F)c4sc(N)c(C#N)c34)c(F)c3nc(OC[C@@]45CCCN4C[C@@]4(CC4(F)F)C5)nc1c23 : ≤ 2000 nM

Briefly, IC50 measured for C[C@H](c1cccnc1N)N1CCOc2c(C(F)(F)F)c(-c3ccc(F)c4sc(N)c(C#N)c34)c(F)c3nc(OCC4(CN5CCC(=CF)CC5)CC4)nc1c23 : ≤ 2000 nM

Briefly, IC50 measured for C#C[C@H](c1cccnc1N)N1CCOc2c(Cl)c(-c3ccc(F)c4sc(N)c(C#N)c34)c(F)c3nc(OC[C@@]45CCCN4C[C@H](F)C5)nc1c23 : ≤ 2000 nM

Briefly, IC50 measured for C=C[C@H](c1cccnc1N)N1CCOc2c(Cl)c(-c3ccc(F)c4sc(N)c(C#N)c34)c(F)c3nc(OC[C@@]45CCCN4C[C@H](F)C5)nc1c23 : ≤ 2000 nM

Briefly, IC50 measured for CO[C@H]1CCN(C)[C@@H]1[C@H](C)Oc1nc2c3c(c(C(F)(F)F)c(-c4ccc(F)c5sc(N)c(C#N)c45)c(F)c3n1)OCCN2[C@H](C)c1cccnc1N : ≤ 2000 nM

Briefly, IC50 measured for C[C@H](c1cccnc1Cl)N1CCOc2c(C(F)(F)F)c(-c3ccc(F)c4sc(N)c(C#N)c34)c(F)c3nc(OC[C@@]45CCCN4C[C@H](F)C5)nc1c23 : ≤ 2000 nM

Briefly, IC50 measured for COC[C@H](c1cccnc1N)N1CCOc2c(C(F)(F)F)c(-c3ccc(F)c4sc(N)c(C#N)c34)c(F)c3nc(OC[C@@]45CCCN4C[C@H](F)C5)nc1c23 : ≤ 2000 nM

Briefly, IC50 measured for C=C[C@H]1COc2c(Cl)c(-c3ccc(F)c4sc(N)c(C#N)c34)c(F)c3nc(OC[C@@]45CCCN4C[C@H](F)C5)nc(c23)N1C(C)c1cccnc1N (single isomer, unassigned) : ≤ 2000 nM

Briefly, IC50 measured for C[C@H](c1nccnc1N)N1CCOc2c(C(F)(F)F)c(-c3ccc(F)c4sc(N)c(C#N)c34)c(F)c3nc(OC[C@@]45CCCN4CC(=C(F)F)C5)nc1c23 : ≤ 2000 nM

Briefly, IC50 measured for CCO/N=C(\C)CCC[C@H](c1cccnc1N)N1CCOc2c(C(F)(F)F)c(-c3ccc(F)c4sc(N)c(C#N)c34)c(F)c3nc(OC[C@@]45CCCN4C[C@H](F)C5)nc1c23 (single isomer, unassigned) [Compound 720] : ≤ 2000 nM
